Values from ChEMBL document CHEMBL4689842

# System: U2OS
# test_protocol: Multiplex assay against U2OS
# Format: toxicity, cell-based
# recorded_conditions: human, 12 h, 10 µM, compound concentration 10 uM, replicate 2
property_measured: Population Mitotic Cells (%)

[[record]]
compound = "Cc1ccc(S(=O)(=O)NC2c3ccccc3Oc3ccccc32)cc1"
assay_value = "4%"

[[record]]
compound = "CN(c1cc(C(F)(F)F)nc(OCCC(=O)O)n1)c1cccc2c1CCC2"
assay_value = "0%"

[[record]]
compound = "NC(=O)c1ccc2nc(-c3ccc(C4(N)CCC4)cc3)c(-c3ccccc3)n2n1 [BAY-1125976]"
assay_value = "80%"

[[record]]
compound = "CCOC(=O)CCNc1cc(N2CCc3ccccc3CC2)nc(-c2ccccn2)n1"
assay_value = "60%"

[[record]]
compound = "CC[C@@]1(O)C(=O)OCc2c1cc1n(c2=O)Cc2cc3ccccc3nc2-1 [CAMPTOTHECIN]"
assay_value = "81%"

[[record]]
compound = "C[C@@H](Oc1cc(-n2cnc3ccc(CN4CCN(C)CC4)cc32)sc1C(N)=O)c1ccccc1C(F)(F)F [GSK-461364]"
assay_value = "59%"


====

# Test system: Fibroblast
# test_protocol: Incucyte cell viability with human fibroblast; note: filed as whole numbers so only -1 and 0 and 1 occur
# Format: toxicity, cell-based
# recorded_conditions: 18 h, 10 µM, compound concentration 10 uM, replicate number 1, timepoint 18 hours
property_measured: Growth Rate

[[record]]
compound = "O=C1c2ccc(Nc3ccc(F)cc3F)cc2CCc2ccc(OC[C@H](O)CO)cc21 [Skepinone-L]"
system_under_test = "Fibroblast"
assay_value = 0

[[record]]
compound = "CN(C)CCCN1c2ccccc2CCc2ccccc21.Cl [IMIPRAMINE HYDROCHLORIDE]"
system_under_test = "Fibroblast"
assay_value = 1

[[record]]
compound = "CC(Cc1ccc(O)c(O)c1)C(C)Cc1ccc(O)c(O)c1 (stereo not drawn) [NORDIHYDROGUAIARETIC ACID]"
system_under_test = "Fibroblast"
assay_value = 0

[[record]]
compound = "CC[C@@H]1C(=O)N(C)c2cnc(Nc3ccc(C(=O)N[C@H]4CC[C@H](N5CCN(CC6CC6)CC5)CC4)cc3OC)nc2N1C(C)C"
system_under_test = "Fibroblast"
assay_value = 0

[[record]]
compound = "C[C@H](NC(=O)Nc1cc2[nH]ncc2c(CO)n1)c1ccccn1"
system_under_test = "Fibroblast"
assay_value = 1

[[record]]
compound = "CC(/C=C1\\SC(=S)N(CCCC(=O)Nc2ccc(C(=O)O)c(O)c2)C1=O)=C\\c1ccccc1"
system_under_test = "Fibroblast"
assay_value = 1

[[record]]
compound = "CC1=C2C[C@H]3[C@@H](CC=C4C[C@@H](O)CC[C@@]43C)[C@@H]2CC[C@]12O[C@@H]1C[C@H](C)CN[C@H]1[C@H]2C"
system_under_test = "Fibroblast"
assay_value = 0

[[record]]
compound = "NC(=O)[C@@H]1CCCN1C(=O)[C@H](Cc1cnc[nH]1)NC(=O)[C@@H]1CCC(=O)N1"
system_under_test = "Fibroblast"
assay_value = 1

[[record]]
compound = "C[C@@H](N)Cc1c[nH]cn1.Cl.Cl"
system_under_test = "Fibroblast"
assay_value = 0

[[record]]
compound = "CCOP(=O)(OCC)C(=Cc1cc(C(C)(C)C)c(O)c(C(C)(C)C)c1)P(=O)(OCC)OCC"
system_under_test = "Fibroblast"
assay_value = 0

[[record]]
compound = "CCN(Cc1ccc(Cl)cc1)c1ncc(C(=O)NCCCN2CCCC2=O)c(NC2CCCC2)n1"
system_under_test = "Fibroblast"
assay_value = 1

[[record]]
compound = "CC(C)c1cc(Nc2nc(N3CCC[C@H](N)C3)ncc2C(N)=O)cc(C(C)C)n1"
system_under_test = "Fibroblast"
assay_value = 0

[[record]]
compound = "C=CC(=O)Nc1cc(-n2c(=O)ccc3cnc4ccc(-c5ccc(NS(C)(=O)=O)cc5)cc4c32)ccc1C"
system_under_test = "Fibroblast"
assay_value = 1

